This collection of values is drawn from patent US20170114049A1.

- ASSAYED SYSTEM: MMP-1 (Homo sapiens, UniProt P03956)
- Sequence (P03956 100-469): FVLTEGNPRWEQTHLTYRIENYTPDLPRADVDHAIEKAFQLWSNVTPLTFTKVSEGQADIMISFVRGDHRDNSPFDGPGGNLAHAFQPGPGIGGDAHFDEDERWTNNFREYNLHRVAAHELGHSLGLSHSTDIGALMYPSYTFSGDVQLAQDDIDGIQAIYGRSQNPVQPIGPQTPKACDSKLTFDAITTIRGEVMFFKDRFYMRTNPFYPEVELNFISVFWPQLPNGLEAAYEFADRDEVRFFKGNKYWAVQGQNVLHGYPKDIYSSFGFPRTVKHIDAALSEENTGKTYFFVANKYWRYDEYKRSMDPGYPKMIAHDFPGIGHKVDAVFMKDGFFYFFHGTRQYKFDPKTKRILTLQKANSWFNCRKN
pIC50: −log10 of the molar value.
Consider the following compounds; for each one, report its pIC50.

Entry under review: Cc1ccc2nnn(C[C@@H]3CC[C@H](C(=O)c4ccc(OCCC5CCOCC5)cc4)[C@H]3C(=O)O)c(=O)c2c1 (racemic) [Example 19] . Reported pIC50?
< 4.40

Same read-out for O=C(O)[C@H]1[C@H](Cn2nnc3ccccc3c2=O)CC[C@@H]1C(=O)c1ccc(OCCC2CCOCC2)cc1 (stereo in doubt) [Example 4] ?
< 4.40

Field entry: Cc1ccc2nnn(C[C@H]3CC[C@@H](C(=O)c4ccc(OCCC5CCOCC5)cc4)[C@@H]3C(=O)O)c(=O)c2c1 (single isomer, unassigned) [Example 20]
< 4.40
